The measured values listed here are drawn from ChEMBL document CHEMBL1201862.

- Test system: HOP-62
- PROTOCOL_SUMMARY: NCI tumour cell line growth inhibition, 48 h
Counter-ions that a name gives are not always drawn. Activity calls are given as the source filed them. Cut-off read from the data, not from the text of the source: active = GI50 up to about 1.1 µM and inactive = higher.
Outcome codes: t = active, f = inactive

>  <MOLECULE>
O=c1c(-c2ccccc2)c(SCCO)n(-c2ccccc2)c(=S)n1-c1ccccc1

>  <CATEGORY_LABEL>
f

$$$$
>  <MOLECULE>
CC1=NN(c2cccc(Cl)c2)C2(C1)SCC(=O)N2c1nc2ccccc2s1 (configuration not stated)

>  <CATEGORY_LABEL>
f

$$$$
>  <MOLECULE>
C[C@]12CCC[C@H](OC=O)C1(O)C[C@H](C(=O)O)CC2 (some centres not stated)

>  <CATEGORY_LABEL>
f

$$$$
>  <MOLECULE>
CCOC(=O)c1nc[nH]c1/N=N/N(C)N

>  <CATEGORY_LABEL>
f

$$$$
>  <MOLECULE>
COc1ccc([C@]23CCC4(OCC(C)(C)CO4)[C@H]4CON(O[C@H](O[C@@H]5CCCCC5C(C)(C)c5ccccc5)C2)[C@@H]43)cc1OC (some centres not stated)

>  <CATEGORY_LABEL>
f

$$$$
>  <MOLECULE>
O=P(O)(Cc1ccccc1)OCC1(O)OCC(O)C(O)C1O (configuration not stated)

>  <CATEGORY_LABEL>
f

$$$$
>  <MOLECULE>
Cn1c2ccccc2c2[nH]c3ccccc3c(=O)c21

>  <CATEGORY_LABEL>
f

$$$$
>  <MOLECULE>
Cc1cc(C2(c3cc(C)c(O)c(C(=O)O)c3)OS(=O)(=O)c3ccccc32)cc(C(=O)O)c1O

>  <CATEGORY_LABEL>
f

$$$$
>  <MOLECULE>
CC(C)c1ccc(/C=C2\N=C(c3ccc([N+](=O)[O-])cc3)OC2=O)cc1

>  <CATEGORY_LABEL>
f

$$$$
>  <MOLECULE>
CC1CC(c2ccccc2)=Nc2ccccc2S1(=O)=O (configuration not stated)

>  <CATEGORY_LABEL>
f

$$$$
>  <MOLECULE>
CCN(CC)CCNc1ccc(C)c2sc3ccccc3c(=O)c12 [LUCANTHONE HYDROCHLORIDE]

>  <CATEGORY_LABEL>
f

$$$$
>  <MOLECULE>
N#C/C(=C\c1cc2ccccc2c2ccccc12)c1ccccc1

>  <CATEGORY_LABEL>
f

$$$$
>  <MOLECULE>
COc1cc(Oc2nc3c(N)cc(C(F)(F)F)cc3nc2-c2ccccc2)cc(OC)c1OC

>  <CATEGORY_LABEL>
f

$$$$
>  <MOLECULE>
Oc1cc(CF)nc(S)n1

>  <CATEGORY_LABEL>
f

$$$$
>  <MOLECULE>
OC(/C(=N/c1ccccc1)c1ccccc1)c1ccccc1 (configuration not stated)

>  <CATEGORY_LABEL>
f

$$$$
>  <MOLECULE>
O=C1NC(=S)N/C1=C\c1ccc(Cl)cc1

>  <CATEGORY_LABEL>
f

$$$$
>  <MOLECULE>
CCOC(=O)C(=O)Nc1c(C)cccc1C(C)C

>  <CATEGORY_LABEL>
f

$$$$
>  <MOLECULE>
C=C(CN(C)C)C(=O)c1cc(C)ccc1C

>  <CATEGORY_LABEL>
f

$$$$
>  <MOLECULE>
NCCCNc1ccc2c3c(nn2CCNCCO)-c2c(O)ccc(O)c2C(=O)c13

>  <CATEGORY_LABEL>
t

$$$$
>  <MOLECULE>
CC1=CC(=O)CC(C)(C)C1(O)/C=C/C(C)=C/C(=O)O (configuration not stated)

>  <CATEGORY_LABEL>
f

$$$$
>  <MOLECULE>
COc1cc(N(CCC#N)CCC#N)ccc1C(/N=N/c1cccc(C)c1)=N\NC(=O)c1ccc(C)cc1

>  <CATEGORY_LABEL>
f

$$$$
>  <MOLECULE>
COc1ccc(NC(=S)N/N=C/c2c(C)n(C)n(-c3ccccc3)c2=O)cc1

>  <CATEGORY_LABEL>
f

$$$$

---

- Test system: UACC-62
- PROTOCOL_SUMMARY: NCI tumour cell line growth inhibition, 48 h
Calls of active or inactive are those of the source. No stated cut-off is given here; in the data, active = GI50 up to about 1.1 µM and inactive = higher. *1 amine or outer side, *2 acyl side, *3 side chain or, on linkers, in order; H or OH if unused. Where a SMILES comes first, the peptide text is derived from it. Bridges are numbered along the chain shown (N, C = ends). [ ]: non-standard residue; d: D form. ξ: configuration not given here. X10 = CCC(C)C(N[*:1])C(O)CC(=O)O[C@H](C(=O)C(C)C(=O)[*:2])C(C)C; NMeY = CN[C@@H](Cc1ccc(O)cc1)C(=O)O; ξNMeL = CNC(CC(C)C)C(=O)O; ξT = CC(O)C(N)C(=O)O
Outcome codes: active, inactive

>  <COMPOUND>
COc1ccc(NC(=O)COC(=O)c2cccc3c(=O)c4ccccc4[nH]c23)cc1

>  <CATEGORY_LABEL>
inactive

$$$$
>  <COMPOUND>
CCC(C)C1NC(=O)C(NC(=O)C(CC(C)C)N(C)C(=O)[C@@H]2CCCN2)C(C)OC(=O)[C@H](Cc2ccc(OC)cc2)N(C)C(=O)[C@@H]2CCCN2C(=O)[C@H](CC(C)C)NC(=O)C(C)C(=O)[C@H](C(C)C)OC(=O)CC1O (stereo partly drawn) (H-P[ξNMeL][ξT][X10]LP[NMeY](Me); ester 3-C)

>  <CATEGORY_LABEL>
active

$$$$
>  <COMPOUND>
CN(C)c1ccc(N2C(=S)SC(=N\c3ccccc3)/C2=N/c2ccccc2)cc1

>  <CATEGORY_LABEL>
inactive

$$$$
>  <COMPOUND>
CC(C)c1ccccc1SCc1cc(=O)cc(CSc2ccccc2C(C)C)o1

>  <CATEGORY_LABEL>
inactive

$$$$
>  <COMPOUND>
COC(=O)CCC(NC(=S)N/N=C(\C)c1ccc[nH]1)C(=O)OC (stereo not drawn)

>  <CATEGORY_LABEL>
inactive

$$$$
>  <COMPOUND>
COc1ccc(S(=O)(=O)NNS(C)(=O)=O)cc1

>  <CATEGORY_LABEL>
inactive

$$$$
>  <COMPOUND>
O=C1CCc2cc(Br)ccc2O1

>  <CATEGORY_LABEL>
inactive

$$$$
>  <COMPOUND>
CC(=O)N1C/C(=C\c2ccc(N(C)C)cc2)C(=O)/C(=C/c2ccc(N(C)C)cc2)C1

>  <CATEGORY_LABEL>
inactive

$$$$

---

- Tested on: HOP-92
- PROTOCOL_SUMMARY: NCI tumour cell line growth inhibition, 48 h
The source made the active and inactive calls. Cut-off read from the data, not from the text of the source: active = GI50 up to about 1.1 µM and inactive = higher.
Possible outcomes: label 1 for active, label 0 for inactive

>  <MOLECULE>
O=C(/C=C\Nc1ccccc1O)C(F)(F)F

>  <CATEGORY_LABEL>
label 0

$$$$
>  <MOLECULE>
COc1ccc([C@@H]2OC(=O)C3C2C(=O)O[C@H]3c2ccc(OC)c(OC)c2)cc1OC (stereo partly specified)

>  <CATEGORY_LABEL>
label 0

$$$$
>  <MOLECULE>
Cc1cc(Cl)ccc1NC(=O)CCCC(=O)C1CCC/C1=N\NC(=O)CC#N (stereo unspecified)

>  <CATEGORY_LABEL>
label 0

$$$$
>  <MOLECULE>
CCN1C(=S)n2cccc2C1CC(=O)c1ccc(Cl)cc1 (stereo unspecified)

>  <CATEGORY_LABEL>
label 0

$$$$
>  <MOLECULE>
CC1(C)N=C(N)N=C(N)N1c1ccc(OCCCOc2ccccc2)c(Cl)c1

>  <CATEGORY_LABEL>
label 1

$$$$
>  <MOLECULE>
CN(C)CCn1c(=O)c2ccc3c4c(nn3CCN(C)C)c3cc([N+](=O)[O-])ccc3n(c1=O)c24

>  <CATEGORY_LABEL>
label 1

$$$$
>  <MOLECULE>
CC(=O)NC(ON1C(=O)COc2ccccc21)C(Cl)(Cl)Cl (stereo unspecified)

>  <CATEGORY_LABEL>
label 0

$$$$
>  <MOLECULE>
CC(=O)CC1(O)C(=O)c2c(Br)sc(Br)c2C1=O

>  <CATEGORY_LABEL>
label 0

$$$$
>  <MOLECULE>
O=[N+]([O-])c1ccc2nc3c(nc2c1)-c1c2ccccc2cc2cccc-3c12

>  <CATEGORY_LABEL>
label 0

$$$$
>  <MOLECULE>
C=CCN(N=O)C(=O)NCCCCC(NC(C)=O)C(=O)NCc1ccccc1 (stereo unspecified)

>  <CATEGORY_LABEL>
label 0

$$$$
>  <MOLECULE>
NCCCNCCSSCc1ccccc1CSSCCNCCCN

>  <CATEGORY_LABEL>
label 0

$$$$

---

- System: K562
- PROTOCOL_SUMMARY: NCI tumour cell line growth inhibition, 48 h
Activity calls are given as the source filed them. Rule as the data show it: active = GI50 up to about 1.1 µM and inactive = higher.
A collection of molecules and their measured GI50
MEASURED_QUANTITY: GI50

>  <MOLECULE>
COc1ccc(NC(=S)N/N=C/c2c(C)n(C)n(-c3ccccc3)c2=O)cc1

>  <MEASURED_QUANTITY>
GI50

>  <MEASURED_RESULT>
26.2 µM (inactive)

$$$$
>  <MOLECULE>
O=C1NC(=S)NC(=O)C1=Cc1cc2c(cc1[N+](=O)[O-])OCO2

>  <MEASURED_QUANTITY>
GI50

>  <MEASURED_RESULT>
41.8 µM (inactive)

$$$$
>  <MOLECULE>
NC(=O)NCCCC(NC(=O)OCCCCn1ccc(=O)[nH]c1=O)C(=O)O (stereo unspecified)

>  <MEASURED_QUANTITY>
GI50

>  <MEASURED_RESULT>
> 100 µM (inactive)

$$$$
>  <MOLECULE>
CC(C)=CCC[C@@H](C)c1c2ncc[nH]c-2c(C)c(=O)c1O

>  <MEASURED_QUANTITY>
GI50

>  <MEASURED_RESULT>
21.7 µM (inactive)

$$$$
>  <MOLECULE>
COC(=O)c1ccc(C(=O)OC)c2nc3cc(C)ccc3nc12

>  <MEASURED_QUANTITY>
GI50

>  <MEASURED_RESULT>
> 100 µM (inactive)

$$$$
>  <MOLECULE>
O=c1nc2occc2cn1C1CC(O)C(CO)O1 (stereo unspecified)

>  <MEASURED_QUANTITY>
GI50

>  <MEASURED_RESULT>
> 100 µM (inactive)

$$$$
>  <MOLECULE>
CC(=O)C1=C(C)Cn2c(=O)c3ccccc3c(=O)n2C1

>  <MEASURED_QUANTITY>
GI50

>  <MEASURED_RESULT>
> 100 µM (inactive)

$$$$
>  <MOLECULE>
C=C(C(=O)OCC)C(=O)OCC

>  <MEASURED_QUANTITY>
GI50

>  <MEASURED_RESULT>
> 100 µM (inactive)

$$$$
>  <MOLECULE>
Cn1c2ccccc2c2[nH]c3ccccc3c(=O)c21

>  <MEASURED_QUANTITY>
GI50

>  <MEASURED_RESULT>
> 100 µM (inactive)

$$$$
>  <MOLECULE>
O=c1[nH]nc(-c2ccccc2)c2[nH]c3c(c12)Cc1ccccc1-3

>  <MEASURED_QUANTITY>
GI50

>  <MEASURED_RESULT>
0.839 µM (active)

$$$$
>  <MOLECULE>
O=c1[nH]nc(-c2ccccc2)n1/N=C/c1ccc([N+](=O)[O-])cc1

>  <MEASURED_QUANTITY>
GI50

>  <MEASURED_RESULT>
> 100 µM (inactive)

$$$$
